Just for reference, ChEMBL document CHEMBL3112572 is where these values come from.

# Assayed system: Sodium channel protein type 4 subunit alpha (Homo sapiens)
# Sequence (P35499 whole entry): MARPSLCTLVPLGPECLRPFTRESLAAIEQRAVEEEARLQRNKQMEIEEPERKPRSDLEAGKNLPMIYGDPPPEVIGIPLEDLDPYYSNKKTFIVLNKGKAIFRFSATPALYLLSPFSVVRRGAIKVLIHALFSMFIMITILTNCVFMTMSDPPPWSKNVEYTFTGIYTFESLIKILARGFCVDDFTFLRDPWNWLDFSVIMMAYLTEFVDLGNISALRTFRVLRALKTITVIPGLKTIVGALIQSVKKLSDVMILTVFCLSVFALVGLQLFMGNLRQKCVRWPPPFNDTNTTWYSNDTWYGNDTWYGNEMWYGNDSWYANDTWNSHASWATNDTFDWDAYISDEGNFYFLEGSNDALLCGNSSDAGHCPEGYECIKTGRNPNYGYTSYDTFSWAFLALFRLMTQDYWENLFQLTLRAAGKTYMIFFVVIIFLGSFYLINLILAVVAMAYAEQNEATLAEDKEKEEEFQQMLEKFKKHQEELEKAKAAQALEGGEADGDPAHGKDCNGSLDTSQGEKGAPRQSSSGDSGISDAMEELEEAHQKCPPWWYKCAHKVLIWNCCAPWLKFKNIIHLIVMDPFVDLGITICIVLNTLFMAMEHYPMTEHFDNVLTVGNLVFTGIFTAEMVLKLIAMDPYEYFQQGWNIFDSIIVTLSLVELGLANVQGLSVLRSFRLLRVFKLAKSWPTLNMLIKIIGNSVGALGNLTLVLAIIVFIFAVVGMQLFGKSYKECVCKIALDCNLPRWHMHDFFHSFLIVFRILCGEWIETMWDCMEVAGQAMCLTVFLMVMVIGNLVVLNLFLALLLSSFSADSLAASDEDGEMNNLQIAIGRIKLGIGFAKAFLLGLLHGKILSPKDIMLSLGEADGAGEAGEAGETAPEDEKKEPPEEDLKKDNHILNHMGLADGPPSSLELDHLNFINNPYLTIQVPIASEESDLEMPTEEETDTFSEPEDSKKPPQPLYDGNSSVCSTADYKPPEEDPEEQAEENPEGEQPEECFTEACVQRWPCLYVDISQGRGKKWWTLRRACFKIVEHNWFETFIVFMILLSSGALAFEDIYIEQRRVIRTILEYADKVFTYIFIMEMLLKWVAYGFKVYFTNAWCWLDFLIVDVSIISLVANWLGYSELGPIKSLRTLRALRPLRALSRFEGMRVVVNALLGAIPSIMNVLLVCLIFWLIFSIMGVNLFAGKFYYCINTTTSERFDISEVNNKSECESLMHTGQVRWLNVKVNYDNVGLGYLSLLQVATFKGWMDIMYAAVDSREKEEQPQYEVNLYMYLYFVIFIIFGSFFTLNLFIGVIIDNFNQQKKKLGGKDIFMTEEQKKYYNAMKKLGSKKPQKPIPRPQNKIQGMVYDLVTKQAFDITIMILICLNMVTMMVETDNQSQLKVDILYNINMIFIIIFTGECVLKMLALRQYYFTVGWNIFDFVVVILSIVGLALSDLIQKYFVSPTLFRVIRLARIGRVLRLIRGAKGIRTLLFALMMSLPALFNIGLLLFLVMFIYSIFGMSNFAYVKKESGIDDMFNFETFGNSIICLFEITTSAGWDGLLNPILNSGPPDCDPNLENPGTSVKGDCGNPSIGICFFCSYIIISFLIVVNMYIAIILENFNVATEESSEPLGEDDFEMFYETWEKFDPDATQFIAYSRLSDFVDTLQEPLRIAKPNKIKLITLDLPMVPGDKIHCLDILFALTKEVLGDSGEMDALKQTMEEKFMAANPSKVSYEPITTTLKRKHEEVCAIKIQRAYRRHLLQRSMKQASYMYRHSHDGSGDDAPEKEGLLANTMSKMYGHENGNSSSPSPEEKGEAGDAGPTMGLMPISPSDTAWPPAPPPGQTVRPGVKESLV
# Test summary: Modulation of human Nav1.4 in open-inactivated state assessed as inhibition of inward current after 4 mins by whole-cell electrophysiology
Readout name: IC50 (µM)
Give bare numbers, in µM.

Below, 3 molecules whose answers are already recorded.
| Record smiles | IC50 (µM) |
| --- | --- |
| CC(C)(C)OC(=O)n1cc(-c2ccc(NC(=O)c3cc4ccccc4[nH]3)cc2)nc1N | 28 |
| Nc1nc(-c2cccc(NC(=O)c3cc[nH]c3)c2)c[nH]1 | 15 |
| CC(C)(C)OC(=O)n1cc(-c2cccc(NC(=O)c3ccc[nH]3)c2)nc1N | 25 |

Problem: For Sodium channel protein type 4 subunit alpha (Homo sapiens), provide IC50 of CCN(CC)CC(=O)Nc1c(C)cccc1C please.
Result: 2
